meta.source: patent US12606552B2

The entries below are paired with their reported DC50.
# Target desc: AR (Homo sapiens, UniProt P10275, T878A)
# Measurement notes: Effects of compounds on AR expression in LNCaP cells (ELISA, DC50)
# Type: cell-based
# Design: Measurement of the Effects of Drugs on the Expression of AR in Cells by ELISA Method; endogenous in cells; host or cells: LNCaP
# Conditions used: 24 hours of drug treatment, AR by ELISA
Provide only the numeric value, understood in nM.

{"columns": ["Compound", "DC50 (nM)"],
 "data": [
  ["Cc1ncsc1-c1ccc(CNC(=O)[C@@H]2C[C@@H](O)CN2C(=O)[C@@H](NC(=O)COCCCCOc2ccc(-c3ccc(N4C(=S)N(c5ccc(C#N)c(C(F)(F)F)c5F)C(=O)C4(C)C)cn3)cc2F)C(C)(C)C)cc1 [Compound A55]", 38.8],
  ["Cc1ncsc1-c1ccc([C@H](C)NC(=O)[C@@H]2C[C@@H](O)CN2C(=O)[C@@H](NC(=O)COCC(F)C(F)COc2c(F)cc(-c3ncc(N4C(=S)N(c5ccc(C#N)c(C(F)(F)F)c5F)C(=O)C4(C)C)cc3F)cc2F)C(C)(C)C)cc1 (stereo partly shown) [Compound A144]", 635],
  ["Cc1ncsc1-c1ccc(CNC(=O)[C@@H]2C[C@@H](O)CN2C(=O)[C@@H](NC(=O)COCC(F)C(F)COc2ccc(-c3ncc(N4C(=S)N(c5ccc(C#N)c(C(F)(F)F)c5F)C(=O)C4(C)C)cc3F)c(C(F)(F)F)c2)C(C)(C)C)cc1 (stereo partly shown) [Compound A154]", 37.6],
  ["CC1(C)C(=O)N(c2ccc(C#N)c(C(F)(F)F)c2F)C(=S)N1c1cnc(-c2ccc(OCC(=O)NCCNc3cccc4c3C(=O)N(C3CCC(=O)NC3=O)C4=O)c(F)c2)c(F)c1 (stereo not shown) [Compound A41]", 59],
  ["Cc1ncsc1-c1ccc(CNC(=O)[C@@H]2C[C@@H](O)CN2C(=O)[C@@H](NC(=O)COCCCCOc2ccc(-c3ncc(N4C(=S)N(c5ccc(C#N)c(C(F)(F)F)c5F)C(=O)C4(C)C)cc3F)cc2C#N)C(C)(C)C)cc1 [Compound A78]", 57.4]
]}

Now turn to the next compound.
Reported DC50 of Cc1ncsc1-c1ccc(CNC(=O)[C@@H]2C[C@@H](O)CN2C(=O)[C@@H](NC(=O)COCCCCOc2ccc(-c3ncc(N4C(=S)N(c5ccc(C#N)c(C(F)(F)F)c5F)C(=O)C4(C)C)cc3C(F)(F)F)c(F)c2)C(C)(C)C)cc1 [Compound A95] : 106

====

# Target desc: AR (Homo sapiens, UniProt P10275, T878A)
# Sequence (P10275 1-920 T878A): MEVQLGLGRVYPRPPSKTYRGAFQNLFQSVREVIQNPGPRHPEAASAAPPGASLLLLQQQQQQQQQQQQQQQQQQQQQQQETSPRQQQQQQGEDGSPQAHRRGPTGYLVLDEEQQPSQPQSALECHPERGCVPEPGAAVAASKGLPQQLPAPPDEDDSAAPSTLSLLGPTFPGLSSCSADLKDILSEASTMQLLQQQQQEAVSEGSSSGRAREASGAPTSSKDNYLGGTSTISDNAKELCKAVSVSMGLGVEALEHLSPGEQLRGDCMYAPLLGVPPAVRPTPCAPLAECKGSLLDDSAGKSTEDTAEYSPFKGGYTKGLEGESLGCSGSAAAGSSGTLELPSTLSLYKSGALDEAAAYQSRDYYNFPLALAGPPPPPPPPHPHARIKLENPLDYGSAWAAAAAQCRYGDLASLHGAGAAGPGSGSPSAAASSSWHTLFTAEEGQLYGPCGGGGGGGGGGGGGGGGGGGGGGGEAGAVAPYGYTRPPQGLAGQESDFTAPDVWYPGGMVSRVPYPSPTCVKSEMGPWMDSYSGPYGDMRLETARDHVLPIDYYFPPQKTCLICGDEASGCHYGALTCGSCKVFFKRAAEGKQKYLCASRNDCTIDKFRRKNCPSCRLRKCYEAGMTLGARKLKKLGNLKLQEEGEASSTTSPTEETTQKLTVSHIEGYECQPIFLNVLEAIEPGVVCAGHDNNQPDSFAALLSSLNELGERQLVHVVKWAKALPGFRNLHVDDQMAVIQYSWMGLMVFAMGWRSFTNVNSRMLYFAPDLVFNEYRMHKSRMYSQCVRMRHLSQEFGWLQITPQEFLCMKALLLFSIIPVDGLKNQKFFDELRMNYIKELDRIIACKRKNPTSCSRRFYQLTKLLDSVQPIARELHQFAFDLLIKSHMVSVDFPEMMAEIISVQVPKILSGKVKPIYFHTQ
# Measurement notes: Effects of compounds on AR expression in LNCaP cells (ELISA, DC50)
# Assay type: cell-based
# Design: Measurement of the Effects of Drugs on the Expression of AR in Cells by ELISA Method; endogenous in cells; host or cells: LNCaP
# Conditions used: 24 hours of drug treatment, AR by ELISA
The entries below are paired with their reported DC50.
Provide only the numeric value, understood in nM.

Reported DC50 of "Cn1cncc1-c1c[nH]c([C@@H]2C[C@@H](O)CN2C(=O)[C@@H](NC(=O)COCCCCOc2ccc(-c3ccc(N4C(=S)N(c5ccc(C#N)c(C(F)(F)F)c5F)C(=O)C4(C)C)cn3)cc2)C(C)(C)C)n1" : 41.3

Reported DC50 of "Cc1ncsc1-c1ccc(CNC(=O)[C@@H]2C[C@@H](O)CN2C(=O)[C@@H](NC(=O)C2CCN(C3CCN(C(=O)c4ccc(-c5ccc(N6C(=S)N(c7ccc(C#N)c(C(F)(F)F)c7F)C(=O)C6(C)C)cn5)cc4)CC3)CC2)C(C)(C)C)cc1" : 268

Reported DC50 of "Cc1ncsc1-c1ccc(CNC(=O)[C@@H]2C[C@@H](O)CN2C(=O)[C@@H](NC(=O)COCCCCCOc2ccc(-c3ccc(N4C(=S)N(c5ccc(C#N)c(C(F)(F)F)c5F)C(=O)C4(C)C)cn3)cc2)C(C)(C)C)cc1" : 49.3

====

# Target desc: AR (Homo sapiens, UniProt P10275, T878A)
# Sequence (P10275 1-920 T878A): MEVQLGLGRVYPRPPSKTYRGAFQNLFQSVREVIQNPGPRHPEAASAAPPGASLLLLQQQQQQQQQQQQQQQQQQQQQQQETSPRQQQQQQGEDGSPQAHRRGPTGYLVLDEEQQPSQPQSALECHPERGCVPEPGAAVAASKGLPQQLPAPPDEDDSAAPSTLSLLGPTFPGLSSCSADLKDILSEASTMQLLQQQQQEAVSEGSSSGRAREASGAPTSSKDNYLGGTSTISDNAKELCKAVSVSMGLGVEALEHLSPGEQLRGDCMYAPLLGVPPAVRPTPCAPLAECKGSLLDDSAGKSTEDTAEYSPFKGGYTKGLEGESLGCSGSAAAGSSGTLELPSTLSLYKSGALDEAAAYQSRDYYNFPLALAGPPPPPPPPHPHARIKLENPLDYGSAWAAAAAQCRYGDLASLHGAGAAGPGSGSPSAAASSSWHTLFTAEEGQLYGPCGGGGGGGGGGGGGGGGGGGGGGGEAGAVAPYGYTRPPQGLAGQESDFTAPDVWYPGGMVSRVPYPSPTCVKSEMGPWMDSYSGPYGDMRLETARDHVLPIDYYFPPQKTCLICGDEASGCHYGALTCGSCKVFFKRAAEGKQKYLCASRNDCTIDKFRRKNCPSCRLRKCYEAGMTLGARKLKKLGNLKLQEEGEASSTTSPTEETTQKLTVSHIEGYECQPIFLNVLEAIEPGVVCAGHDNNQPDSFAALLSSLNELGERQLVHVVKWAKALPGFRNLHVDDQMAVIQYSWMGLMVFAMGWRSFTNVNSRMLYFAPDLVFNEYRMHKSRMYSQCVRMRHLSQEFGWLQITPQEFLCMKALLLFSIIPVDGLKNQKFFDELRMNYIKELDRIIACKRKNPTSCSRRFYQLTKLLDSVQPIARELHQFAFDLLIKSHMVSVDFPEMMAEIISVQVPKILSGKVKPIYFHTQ
# Measurement notes: Effects of compounds on AR expression in LNCaP cells (ELISA, DC50)
# Assay type: cell-based
# Set-up: Measurement of the Effects of Drugs on the Expression of AR in Cells by ELISA Method; endogenous in cells; host or cells: LNCaP
# Conditions used: 24 hours of drug treatment, AR by ELISA
Label key: Y means DC50 under 90 nM; N means DC50 of 90 nM or more.

{"columns": ["Compound", "Classification"],
 "data": [
  ["Cc1ncsc1-c1ccc(CNC(=O)[C@@H]2C[C@@H](O)CN2C(=O)[C@@H](NC(=O)COCCOc2ccc(-c3ncc(N4C(=S)N(c5ccc(C#N)c(C(F)(F)F)c5F)C(=O)C4(C)C)cc3C(F)(F)F)cc2)C(C)(C)C)cc1 [Compound A92]", "N"]
]}

In: A record lists CC1(C)C(=O)N(c2ccc(C#N)c(C(F)(F)F)c2F)C(=S)N1c1ccc(-c2ccc(OCCNC(=O)COc3cccc4c3C(=O)N(C3CCC(=O)NC3=O)C4=O)cc2)cc1 (centres unmarked) [Compound A22] . Is its DC50 below 90 nM?
Out: Y

In: A record lists Cc1ncsc1-c1ccc(CNC(=O)[C@@H]2C[C@@H](O)CN2C(=O)[C@@H]2CCCN2C(=O)COCCCCOc2ccc(-c3ncc(N4C(=S)N(c5ccc(C#N)c(C(F)(F)F)c5F)C(=O)C4(C)C)cc3F)cc2F)cc1 [Compound A142] . Is its DC50 below 90 nM?
Out: N

In: A record lists Cc1ncsc1-c1ccc([C@H](C)NC(=O)[C@@H]2C[C@@H](O)CN2C(=O)[C@@H](NC(=O)COCCC(F)COc2c(F)cc(-c3ncc(N4C(=S)N(c5ccc(C#N)c(C(F)(F)F)c5F)C(=O)C4(C)C)cc3F)cc2F)C(C)(C)C)cc1 (some centres unmarked) [Compound A149] . Is its DC50 below 90 nM?
Out: N

In: A record lists Cc1ncoc1-c1c[nH]c([C@@H]2C[C@@H](O)CN2C(=O)[C@@H](NC(=O)COCCCCOc2ccc(-c3ncc(N4C(=S)N(c5ccc(C#N)c(C(F)(F)F)c5F)C(=O)C4(C)C)cc3F)c(C(F)(F)F)c2)C(C)(C)C)n1 [Compound A224] . Is its DC50 below 90 nM?
Out: Y

In: A record lists Cc1ncsc1-c1ccc(CNC(=O)[C@@H]2C[C@@H](O)CN2C(=O)[C@@H](NC(=O)COCC(F)CCOc2ccc(-c3ccc(N4C(=S)N(c5ccc(C#N)c(C(F)(F)F)c5F)C(=O)C4(C)C)cn3)cc2)C(C)(C)C)cc1 (some centres unmarked) [Compound A171] . Is its DC50 below 90 nM?
Out: Y

In: A record lists Cc1cc(C(C(=O)N2C[C@H](O)C[C@H]2C(=O)N[C@@H](CC(=O)NCCN2CCC(Oc3ccc(-c4ncc(N5C(=S)N(c6ccc(C#N)c(C(F)(F)F)c6F)C(=O)C5(C)C)cc4F)cc3F)CC2)c2ccc(-c3scnc3C)cc2)C(C)C)on1 (some centres unmarked) [Compound A186] . Is its DC50 below 90 nM?
Out: Y

In: A record lists Cc1ncsc1-c1ccc(CNC(=O)[C@@H]2C[C@@H](O)CN2C(=O)[C@@H](NC(=O)COCCC(F)COc2ccc(-c3ncc(N4C(=S)N(c5ccc(C#N)c(C(F)(F)F)c5F)C(=O)C4(C)C)cc3F)cc2F)C(C)(C)C)cc1 (some centres unmarked) [Compound A147] . Is its DC50 below 90 nM?
Out: Y
